- Test system: PC-3
- METHOD DESCRIPTION: NCI tumour cell line growth inhibition, 48 h
Calls of active or inactive are those of the source. No stated cut-off is given here; in the data, active = GI50 up to about 1.1 µM and inactive = higher.
Measured GI50 accompanies every entry in the list below.

CC1C(c2ccccc2)OP(=O)(OC(C#N)c2ccccc2)N1C (configuration not stated)
> 100 µM (inactive)
COc1ccc(/C=N/n2c(=O)[nH]c3ccccc3c2=O)cc1
> 100 µM (inactive)
COC(=O)c1c(C)cccc1/C=C1\Cc2ccc(C)c(C)c2C1=O
> 100 µM (inactive)
CC(CCC(=O)O)(c1cc(Br)c(O)c(Br)c1)c1cc(Br)c(O)c(Br)c1
54.7 µM (inactive)
O=C(CNS(=O)(=O)Cc1ccccc1)NNc1ccccc1
> 100 µM (inactive)

Input: So what's the measured GI50 for this one? CN1[C@@H]2CCCC[C@H]2N(C)P1(=O)C(O)/C=C/c1ccccc1 (some centres not stated)
Output: > 100 µM (inactive)

Input: Try this compound next: Cc1ccc(N2C(=O)CC(=O)N(NC(=O)C(C)Oc3ccccc3C)C2=S)cc1 (configuration not stated)
Output: > 100 µM (inactive)

Input: Try this compound next: `Nc1ccn(C=C=CCO)c(=O)n1`
Output: > 100 µM (inactive)

Input: Try this compound next: `COc1ccc(C[C@H]2NC(=O)/C=C/C[C@@H]([C@H](C)[C@H]3O[C@@H]3c3ccccc3)OC(=O)[C@H](CC(C)C)OC(=O)[C@H](C)CNC2=O)cc1`
Output: 2.09e-05 µM (active)

Input: Try this compound next: CC(C)(C)[Si](C)(C)OCC1CCC(n2cnc3c(N)ncnc32)O1 (configuration not stated)
Output: 28.2 µM (inactive)

Input: Try this compound next: `Oc1cc(Br)cc2cc(Br)cnc12`
Output: 3.71 µM (inactive)

Input: Try this compound next: `c1cnc(N2CCN(Cc3c[nH]c4ccccc34)CC2)nc1`
Output: 23.5 µM (inactive)

Input: Try this compound next: COc1cc2c(cc1OC)C1c3ccccc3CCN1CC2 (configuration not stated)
Output: > 100 µM (inactive)
